Experiment: AUC in rat at 10 mg/kg, po
Format: ADME, organism-based
Design: dose 10 mg/kg, route po
Conditions: in vivo, read-out: AUC

Molecule: CNC(=O)c1ccc(-c2ccc(C3(C(=O)N4CC[C@@]5(C4)OC(=O)c4ccccc45)CC3)cc2)cn1
Value unit: µM·h
AUC: 11.2

* * *

Assay: Half life in cynomologus monkey at 10 mg/kg, po
Type: ADME, organism-based, Macaca fascicularis
Settings: cynomolgus monkey, in vivo

Molecule: CNC(=O)c1ccc(-c2ccc(C3(C(=O)N4CC[C@@]5(C4)OC(=O)c4ccccc45)CC3)cc2)cn1
Value unit: h
half-life: 2.6

* * *

Assay: Oral bioavailability in cynomologus monkey at 10 mg/kg
Assay type: ADME, organism-based, Macaca fascicularis
Settings: cynomolgus monkey, in vivo

Molecule: CNC(=O)c1ccc(-c2ccc(C3(C(=O)N4CC[C@@]5(C4)OC(=O)c4ccccc45)CC3)cc2)cn1
Value unit: %
bioavailability: 43
